test system: M14 melanoma; assay: NCI-60 one-dose screen, 48 h; conditions: 10 µM
About 83,000 compounds went through this panel and 20% of them were active in at least one assay; those are over-represented in the sample as a whole. Activity calls are given as the source filed them. Rule for the calls: active = growth percent below 10; inactive = the rest.
One label from this list, please: 1.0 = active, 0.0 = inactive

Field: example entries. Status: answers known.
O=C(N/N=C/c1ccccc1O)Nc1nn[nH]n1 :: 0.0
CC(C(=O)O)(C1CCCCC1)C1(O)CCCCC1 (configuration not stated) :: 0.0
CCS(=O)(=O)CCCl :: 0.0
CCCCCCCCCCC1CO1 (configuration not stated) :: 0.0
CC(C)(O)C#CC#CC(C)(C)O :: 0.0
O=C(c1ccccc1)C1CCC1 :: 0.0
O=C(Nc1ccccc1C(=O)NCC1CC1)c1cccs1 :: 0.0
COc1cc2c3c(n(C)c(=O)c2cc1OC)-c1cc2c(cc1C3=O)OCO2 :: 0.0
Nc1ncnc2c1nc(N)n2C1OC(CO)C(O)C1O (configuration not stated) :: 1.0
CCOC(=O)c1ccc(Nc2sc(C(=O)c3cccc([N+](=O)[O-])c3)c(N)c2C#N)cc1 :: 0.0

[Q] Query: recorded result category for CCOC(=O)CSc1c([N+](=O)[O-])ncn1C in this test
[A] 0.0

[Q] Record lookup: outcome of this test for O=C(O)CCC(=O)OC(C1CO1)C(OC(=O)CCC(=O)O)C1CO1 (configuration not stated) ?
[A] 0.0

----------
tested on: NCI-H460 lung; assay: NCI-60 one-dose screen, 48 h (100 = growth as untreated, 0 = no growth, -100 = all killed); conditions: 10 µM
The panel holds about 83,000 compounds, 20% with a hit somewhere; the sample as a whole holds those more often.
endpoint: growth (%)
Give a bare numeral; the unit % is implied.

N#CC(=Nc1cccc(F)c1)C1=C(O)c2ccccc2C1=O :: 102
O=C(CC(=O)c1ccccc1O)c1ccccc1 :: 88.8

[Q] Answer with the recorded growth for the molecule listed here: Cc1ccc(/C(C#N)=C/c2ccc3c(c2)OCO3)cc1
[A] 71.3

----------
Each record here notes measured growth.
Test system: HCT-15 colon
Test: NCI-60 one-dose screen, 48 h (100 = growth as untreated, 0 = no growth, -100 = all killed)
Details: 10 µM
Protocol: Growth inhibition of the HCT-15 human tumor cell line is measured as a screen for anti-cancer activity. Cells are grown in 96 well plates and exposed to the test compound for 48 hours. Compounds are tested at a single concentration, which is 10^-5 M for most compounds. The reported endpoint is percent growth (GI% or GIPRCNT), where numbers from 0 - 100% represent growth inhibition, and numbers from -100% - 0 represent cell death. For example, a value of 40 represents 60% growth inhibition. […]
About 83,000 compounds went through this panel and 20% of them were active in at least one assay; those are over-represented in the sample as a whole.
Value expressed in %; do not type the unit.

Examples with answers:
CCCCOC(=O)c1ccc(C(C)C)cc1 :: 101
CN(C)c1ccc2nc3ccc(=N)cc-3sc2c1 :: 38.8
O=P(O)(O)OCC(O)CO (stereo unspecified) :: 104
Nc1nc2c(c(-c3nc(N)nc4c3CCc3ccccc3-4)n1)CCc1ccccc1-2 :: 104
CC(=O)OC(OC(C)=O)C1CCCO1 (stereo unspecified) :: 104
O=c1[nH]cc(Cl)cc1O :: 64.4

[Q] Fill in growth for record O=C(CS)Nc1ccc2ccccc2c1
[A] 75.9

[Q] Look up and report measured growth for this entry: C/C(=C\c1ccc([N+](=O)[O-])cc1)C(=O)O
[A] 103

[Q] Give a short answer stating reported growth for Cc1ccc(/C=C2\SC(=S)N(c3ccc(F)cc3)C2=O)o1 .
[A] 88.1

[Q] Item COCCOC(=O)c1ccc(C(C)C)cc1 : provide growth
[A] 99.5

[Q] Supply reported growth belonging to this compound: COc1cc([C@@H]2c3cc4c(cc3[C@H](O)[C@H]3COC(=O)[C@H]23)OCO4)cc(OC)c1OC
[A] 10.4

These entries and their values trace back to PubChem BioAssay (NCI).
